Target: RORγ (Mus musculus)
Assay: RORγ-gal4/UAS luciferase reporter in insect cells grown in sterol-free CDM
pEC50: −log10 of the molar value.
Property Measured: pEC50

[in] Reported pEC50 for CC(C)=CCC[C@@H](C)[C@H]1CC[C@@]2(C)C3=CCC4[C@](C)(C=O)C(O)CC[C@]4(C)[C@H]3CC[C@]12C (stereo partly shown) : what is it?
[out] 6.30 to 6.82

----------
Target: RORγ (Mus musculus, UniProt P51450)
Test: RORγ reporter assay in mammalian cells
Type: cell-based
Conditions: mammalian cells (HEK293T)
Property Measured: RORγ reporter activity in mammalian cells

>  <Compound>
CC(C)=CCC[C@@H](C)[C@H]1CC[C@@]2(C)C3=CCC4[C@](C)(C=O)C(O)CC[C@]4(C)[C@H]3CC[C@]12C (stereo partly shown)

>  <Value Reported>
no activity

$$$$
>  <Compound>
CC(C)=CCCC(C)C1CCC2(C)C3=CCC4C(C)(CO)C(O)CCC4(C)C3CCC12C (stereo not shown)

>  <Value Reported>
no activity

$$$$
